test system: MC3T3-E1 cells; assay: Cell growth rate of osteoblasts in cell culture system; type: cell-based, mice; settings: 10 μM; viable cells after 3 days; relative to control defined as 100
Decide using Cell Growth Rate alone. Strictly below 70%: criterion met. Equal to or above 70%: criterion not met.

Worked set:
1) CCCCCCCCCCCCCCCCCC(=O)OC/C=C(\C)CC/C=C(\C)CC/C=C(\C)CCC=C(C)C [Geranyl-geranyl stearate, Geranyl-Geranyl Stearate] : criterion not met
2) CC1=CC(=O)c2ccccc2C1=O [Vitamin K3, reference compound] : criterion met
3) CCCCC/C=C\C/C=C\C/C=C\CCCCC(=O)OC/C=C(\C)CC/C=C(\C)CC/C=C(\C)CCC=C(C)C [Geranyl-Geranyl γ-Linolenate] : criterion not met
4) CC(C)=CCC/C(C)=C/CC/C(C)=C/CC/C(C)=C/CC1=C(C)C(=O)c2ccccc2C1=O [Vitamin K2 (MK-4), reference compound] : criterion met

Is Cell Growth Rate of CCCCCCCC/C=C\CCCCCCCC(=O)OC/C=C(\C)CC/C=C(\C)CC/C=C(\C)CCC=C(C)C [Geranyl-geranyl oleate, Geranyl-Geranyl Oleate] strictly below 70%?
criterion not met

For this compound, is Cell Growth Rate lower than 70%? CCC=CCC=CCC=CCC=CCC=CCCCC(=O)OCCC(C)CCCC(C)CCCC(C)CCCC(C)C (stereo not shown) [Dihydrophytyl Eicosapentaenoate]
criterion not met
